B1: TMEM106C (parent)
chain: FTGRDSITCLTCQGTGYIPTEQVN

- Variants of: B1
- Test: protein stability index of a GFP-peptide fusion (GPS, HEK-293T) (PSI 1-6); higher = more stable;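 note: lentivirally expressed fusions sorted by FACS into six bins by GFP to DsRed ratio, PSI derived from sequencing read proportions per bin multiplied by bin number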
- Stated Conditions: c terminus: a fixed tail appended
Parameter threshold = 2. Response is 1 (yes) when protein stability index meets or exceeds it, else 0 (no).

INSERT INTO assay_data (mutation_key, group) VALUES
  ('Y17C', '1 (yes)');

Data request: // inclusive: protein stability index at least 2? input: `N24D`
Data returned: 1 (yes)

Data request: hey, is protein stability index for this one >= 2? `N24M`
Data returned: 0 (no)

Data request: Entry `T2M` : is its protein stability index no less than 2?
Data returned: 1 (yes)

Data request: Please tell me: is the variant `Q13P` at or over 2 in terms of protein stability index?
Data returned: 0 (no)

Data request: Check this variant for protein stability index at or above 2: `Q13A`
Data returned: 1 (yes)

Data request: Reported protein stability index at or above 2? `Y17M`
Data returned: 0 (no)

Data request: Entry `Y17N` : is its protein stability index no less than 2?
Data returned: 0 (no)
